# assayed-system: hGPR119 (Homo sapiens)
# Construct: expressed in transfected cells; host or cells: CHO cells (CHO-hGPR119)
# Sequence (Q8TDV5 whole entry): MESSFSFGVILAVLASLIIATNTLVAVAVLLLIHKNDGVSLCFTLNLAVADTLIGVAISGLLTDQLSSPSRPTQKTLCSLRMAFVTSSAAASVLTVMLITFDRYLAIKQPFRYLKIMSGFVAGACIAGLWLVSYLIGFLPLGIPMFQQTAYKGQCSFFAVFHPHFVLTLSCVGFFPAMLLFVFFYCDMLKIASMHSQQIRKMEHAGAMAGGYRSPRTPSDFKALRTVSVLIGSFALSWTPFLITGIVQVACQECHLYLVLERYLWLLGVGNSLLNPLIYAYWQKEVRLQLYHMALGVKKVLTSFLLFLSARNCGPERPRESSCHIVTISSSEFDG
# method: In vitro cyclic AMP assay (Cisbio HTRF) in CHO-hGPR119 cells
# Format: cell-based
# assay-context: 1 h, cAMP, 1 μM, 60 min, read-out: Induction (% induction at 1 μM)
value-kind: activation at 1 µM (%)

// known answers, use as guide
compound="CC(Oc1nn2cc(-c3ccc(S(C)(=O)=O)cc3)nc2s1)C1CCN(c2ncc(Cl)cn2)CC1 (stereo not shown) [Compound 1069]" value_kind="activation at 1 µM" test_result=65
compound="CC(C)c1noc(N2CCC([C@@H](C)Oc3nn4cc(-c5ccncc5)nc4s3)CC2)n1 [Compound 1059]" value_kind="activation at 1 µM" test_result=68

I. CS(=O)(=O)c1ccc(OCc2cn3nc(C4CCN(Cc5ccccc5)CC4)sc3n2)cc1 [Compound 1038]
II. CC(C)c1noc(N2CCC([C@@H](C)Oc3nn4cc(-c5ccc(S(C)(=O)=O)cc5)nc4s3)CC2)n1 [Compound 1060]
[in] Which of the two gives a bigger number for activation at 1 µM: I or II ? To answer, give the label that identifies your chosen option.
[out] II
(II: 65%, I: 6%)
